Items are presented alongside their recorded inhibition.
# experimental.target: UniProt:P37059
# Sequence (P37059 whole entry): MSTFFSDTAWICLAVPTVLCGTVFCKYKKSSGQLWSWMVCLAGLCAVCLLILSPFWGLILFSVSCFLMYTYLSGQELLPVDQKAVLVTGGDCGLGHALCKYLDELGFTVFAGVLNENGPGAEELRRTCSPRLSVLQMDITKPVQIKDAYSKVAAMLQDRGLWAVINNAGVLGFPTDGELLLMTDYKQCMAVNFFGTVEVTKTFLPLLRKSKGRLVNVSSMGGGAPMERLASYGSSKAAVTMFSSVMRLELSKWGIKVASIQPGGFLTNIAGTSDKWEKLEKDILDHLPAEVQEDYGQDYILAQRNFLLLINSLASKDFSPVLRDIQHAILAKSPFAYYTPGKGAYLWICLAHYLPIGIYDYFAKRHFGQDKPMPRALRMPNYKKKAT
# method.description: Inhibition of [3H]E2 binding to human placental 17beta-HSD2 at 1 uM after 20 mins
Note: unit % is implicit; provide only the numeric part.

Below, 2 compounds whose answers are already recorded.
| input.smiles | reported.measurement |
| --- | --- |
| CS(=O)(=O)Nc1cccc(-c2ccc3c(O)cccc3c2)c1 | 22 |
| Cc1cccc(S(=O)(=O)Nc2ccc(-c3ccc(O)cc3)cc2)c1 | 14 |

Continue with the next compound.
Entry under review: CN(C(=O)c1ccccc1)c1cccc(-c2ccc(O)cc2)c1 . Reported inhibition? 46

----------
Items are presented alongside their recorded inhibition.
# experimental.target: 17-beta-hydroxysteroid dehydrogenase type 1 (Homo sapiens)
# method.description: Inhibition of [3H]E1 binding to human placental 17beta-HSD1 at 1 uM after 20 mins

Below, 2 molecules whose answers are already recorded.
| input.smiles | experimental.target | reported.measurement |
| --- | --- | --- |
| CS(=O)(=O)Nc1ccc(-c2ccc3c(O)cccc3c2)cc1 | 17-beta-hydroxysteroid dehydrogenase type 1 (Homo sapiens) | 52% |
| COc1cccc(CC(=O)N(C)c2cccc(-c3ccc(CO)cc3)c2)c1 | 17-beta-hydroxysteroid dehydrogenase type 1 (Homo sapiens) | < 10% |

Entry under review: CC(=O)Nc1cccc(-c2ccc(O)cc2)c1 . Reported inhibition? < 10%

Same question for COc1ccc(C(=O)N(C)c2cccc(-c3ccc(CO)cc3)c2)cc1 please. < 10%

Same question for CS(=O)(=O)Nc1ccc(-c2ccc(CO)cc2)cc1 please. < 10%

Same question for Oc1cccc2cc(-c3ccccc3)ccc12 please. < 10%

Same question for Oc1ccc(-c2ccc3c(O)cccc3c2)cc1 please. 20%

Same question for COc1ccc(-c2ccc3c(O)cccc3c2)cc1 please. 28%
